- Test system: c-Met (Homo sapiens, UniProt P08581)
- Construct: Kinases are expressed as either kinase domains or full length constructs; made in house
- Sequence (P08581 25-1390): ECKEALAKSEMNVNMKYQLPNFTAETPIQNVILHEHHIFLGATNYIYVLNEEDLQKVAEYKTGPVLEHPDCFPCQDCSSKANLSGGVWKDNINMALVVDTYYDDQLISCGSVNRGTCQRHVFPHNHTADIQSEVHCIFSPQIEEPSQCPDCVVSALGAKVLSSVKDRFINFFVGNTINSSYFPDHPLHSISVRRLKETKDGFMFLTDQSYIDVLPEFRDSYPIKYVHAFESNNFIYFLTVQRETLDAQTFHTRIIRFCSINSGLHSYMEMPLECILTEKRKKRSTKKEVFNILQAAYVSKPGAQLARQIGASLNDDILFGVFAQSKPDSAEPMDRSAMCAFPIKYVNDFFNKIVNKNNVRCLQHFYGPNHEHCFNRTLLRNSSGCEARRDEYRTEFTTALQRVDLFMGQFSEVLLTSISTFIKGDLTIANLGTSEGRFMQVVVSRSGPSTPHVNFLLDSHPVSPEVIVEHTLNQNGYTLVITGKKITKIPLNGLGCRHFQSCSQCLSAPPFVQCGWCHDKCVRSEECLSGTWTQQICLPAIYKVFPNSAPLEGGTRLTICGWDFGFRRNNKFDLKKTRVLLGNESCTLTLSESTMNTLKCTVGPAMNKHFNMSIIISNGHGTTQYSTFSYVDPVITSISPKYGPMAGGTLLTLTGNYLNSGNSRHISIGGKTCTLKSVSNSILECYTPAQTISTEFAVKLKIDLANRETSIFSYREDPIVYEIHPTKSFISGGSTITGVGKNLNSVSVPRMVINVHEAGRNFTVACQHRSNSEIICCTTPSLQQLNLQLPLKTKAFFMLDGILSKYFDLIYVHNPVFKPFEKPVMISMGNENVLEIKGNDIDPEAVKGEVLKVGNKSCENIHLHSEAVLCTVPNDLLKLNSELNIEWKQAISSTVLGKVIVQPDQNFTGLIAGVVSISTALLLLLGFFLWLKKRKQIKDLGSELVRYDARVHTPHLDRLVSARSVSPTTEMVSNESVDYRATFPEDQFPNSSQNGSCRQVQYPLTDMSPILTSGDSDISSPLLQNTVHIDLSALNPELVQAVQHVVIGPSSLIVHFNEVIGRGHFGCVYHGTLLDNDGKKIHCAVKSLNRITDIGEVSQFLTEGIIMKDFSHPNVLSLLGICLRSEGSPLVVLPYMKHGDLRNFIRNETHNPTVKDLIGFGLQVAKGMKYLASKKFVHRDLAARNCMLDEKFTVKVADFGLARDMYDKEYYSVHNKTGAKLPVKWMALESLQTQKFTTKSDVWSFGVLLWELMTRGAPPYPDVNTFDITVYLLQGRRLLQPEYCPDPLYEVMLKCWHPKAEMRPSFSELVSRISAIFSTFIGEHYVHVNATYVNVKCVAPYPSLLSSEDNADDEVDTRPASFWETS
- Assay details: Kinase inhibition assay (33P transfer), c-Met
- Format: biochemical
- Reported conditions: Table 2, kinase inhibition class; read-out: Met-1
Measurement kind: IC50

Look over these answered cases.
Molecule: COCCOc1ccc(Nc2ncnc(Nc3ccc(C)c(F)c3)n2)cc1OCCOC
IC50: > 10.1 µM
--
Molecule: OCc1ccc(Nc2ncnc(-c3ccccc3)n2)cc1
IC50: > 16.2 µM
--
Molecule: COc1cc(Nc2ncnc(-n3c(Nc4cc(C)n[nH]4)nc4ccccc43)n2)cc(OC)c1OC
IC50: 0.845 to 5.07 µM

Query for c-Met (Homo sapiens, UniProt P08581): what IC50 does the record show for `COc1cc(Nc2ncnc(-n3c(NCc4cccc(Cl)c4)nc4ccccc43)n2)cc(OC)c1OC` ? 6.76 to 8.69 µM

// map `COc1cc(Nc2ncnc(Nc3ccccc3C)n2)cc(OC)c1OC` to recorded IC50 (system: c-Met (Homo sapiens, UniProt P08581)) > 12.2 µM

Lab request: please report IC50 under test system c-Met (Homo sapiens, UniProt P08581) for `COc1cc(Nc2ncnc(N(Cc3ccccc3)c3nc4ccccc4[nH]3)n2)cc(OC)c1OC` > 9.31 µM

---

- Test system: Itk (Homo sapiens, UniProt Q08881)
- Construct: Kinases are expressed as either kinase domains or full length constructs; made in house
- Sequence (Q08881 whole entry, species assumed, the tested form may be a part): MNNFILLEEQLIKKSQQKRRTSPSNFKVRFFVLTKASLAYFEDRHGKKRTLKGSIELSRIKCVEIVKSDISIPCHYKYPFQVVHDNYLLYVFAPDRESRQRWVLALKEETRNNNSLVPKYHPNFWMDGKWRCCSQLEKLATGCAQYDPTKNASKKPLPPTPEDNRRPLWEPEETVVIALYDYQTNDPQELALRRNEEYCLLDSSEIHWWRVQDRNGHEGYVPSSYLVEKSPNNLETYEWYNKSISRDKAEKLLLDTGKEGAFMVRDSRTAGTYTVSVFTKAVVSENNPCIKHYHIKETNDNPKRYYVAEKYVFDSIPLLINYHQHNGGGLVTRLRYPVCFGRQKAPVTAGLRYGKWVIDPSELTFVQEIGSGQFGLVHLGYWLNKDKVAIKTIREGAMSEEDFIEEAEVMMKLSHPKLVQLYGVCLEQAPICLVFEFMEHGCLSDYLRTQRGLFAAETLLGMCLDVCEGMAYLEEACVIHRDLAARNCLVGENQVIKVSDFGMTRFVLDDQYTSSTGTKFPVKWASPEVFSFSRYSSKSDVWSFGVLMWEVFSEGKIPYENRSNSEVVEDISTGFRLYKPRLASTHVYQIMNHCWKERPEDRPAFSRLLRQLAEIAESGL
- Assay details: Kinase inhibition assay (33P transfer), Itk
- Type: biochemical
- Reported conditions: Table 3; read-out: Itk-1
pIC50: −log10 of the molar value.
Measurement kind: pIC50

// below: answered molecules
Chemical structure: C=CCN(c1ccc(Cl)cc1)c1ncnc(Nc2cc(OC)c(OC)c(OC)c2)n1
Measurement kind: pIC50
Result: < 4.98
--
Chemical structure: COc1cc(Nc2ncnc(-c3cccs3)n2)cc(OC)c1OC
Measurement kind: pIC50
Result: < 4.88

--- query ---
I have this molecule here, `COc1cc(Nc2ncnc(-n3c(=O)sc4cc(Br)ccc43)n2)cc(OC)c1OC` , and I need its recorded pIC50. < 5.04

---

- Test system: Lck (Homo sapiens, UniProt P06239)
- Construct: Kinases are expressed as either kinase domains or full length constructs; made in house
- Sequence (P06239 whole entry, species assumed, the tested form may be a part): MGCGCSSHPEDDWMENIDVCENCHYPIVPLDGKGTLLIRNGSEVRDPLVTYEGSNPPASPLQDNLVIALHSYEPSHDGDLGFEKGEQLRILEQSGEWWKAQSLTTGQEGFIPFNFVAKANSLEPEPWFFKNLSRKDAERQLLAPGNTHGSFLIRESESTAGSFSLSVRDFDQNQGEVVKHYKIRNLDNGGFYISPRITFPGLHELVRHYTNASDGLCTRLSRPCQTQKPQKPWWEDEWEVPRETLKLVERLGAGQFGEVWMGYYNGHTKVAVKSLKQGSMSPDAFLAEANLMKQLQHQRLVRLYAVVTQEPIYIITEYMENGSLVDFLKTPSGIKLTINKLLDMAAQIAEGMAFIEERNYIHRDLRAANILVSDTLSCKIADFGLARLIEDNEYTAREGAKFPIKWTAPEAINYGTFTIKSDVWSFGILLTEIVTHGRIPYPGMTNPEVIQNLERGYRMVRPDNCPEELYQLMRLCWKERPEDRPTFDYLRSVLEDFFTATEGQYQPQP
- Assay details: Kinase inhibition assay (33P transfer), Lck
- Assay type: biochemical
- Reported conditions: read-out: Lck-1
pIC50: −log10 of the molar value.
Items are presented alongside their recorded pIC50.

Chemical structure: C=CCNc1nc2ccccc2n1-c1ncnc(Nc2cc(OC)c(OC)c(OC)c2)n1
Test system: Lck (Homo sapiens, UniProt P06239)
pIC50: > 6.03

Look up pIC50 for this compound: `COc1cc(Nc2ncnc(Nc3cc(OC)c(OC)c(OC)c3)n2)ccc1OCCN1CCOCC1` 5.33 to 6.11

// pIC50 lookup, key: `COC(=O)c1sccc1Nc1ncnc(N2CCCc3cc(C)ccc32)n1` < 4.93

Look up pIC50 for this compound: `COc1cc(Nc2ncnc(NC(=O)NCc3ccccc3)n2)cc(OC)c1OC` 5.23 to 6.01

---

Recorded below: IC50, system Tek (Homo sapiens, UniProt Q02763).

The cases that follow already have their IC50 on record.
Molecule: COc1cc(Nc2ncnc(Nc3ccccc3)n2)cc(OC)c1OC [Compound 91]
IC50: > 12.7 µM
//
Molecule: NCc1ccc(Nc2ncnc(Nc3cc(-c4ccco4)n[nH]3)n2)cc1 [Compound 437]
IC50: 6.89 to 10 µM

Form field - read-out: IC50; system: Tek (Homo sapiens, UniProt Q02763); submitted item: COc1cc(Nc2ncnc(Nc3cccc(Br)c3)n2)cc(OC)c1OC [Compound 75] > 10.4 µM

Find the measured IC50: item COc1cc(Nc2ncnc(-c3cccnc3NC(C)C)n2)cc(OC)c1OC [Compound 1089] , target or system Tek (Homo sapiens, UniProt Q02763). > 11.4 µM

Lookup: IC50 / Tek (Homo sapiens, UniProt Q02763) / COc1cccc(-c2ncnc(Nc3cc(OC)c(OC)c(OC)c3)n2)c1 [Compound 232] > 12.2 µM

// map COc1cc(Nc2ncnc(Nc3cccc(C)c3)n2)cc(OC)c1OC [Compound 64] to recorded IC50 (system: Tek (Homo sapiens, UniProt Q02763)) > 12.2 µM

Quick check: IC50 on Tek (Homo sapiens, UniProt Q02763), item COc1cc(C)c(Nc2ncnc(Nc3cc(-c4ccccc4)n[nH]3)n2)cc1OC [Compound 978] ? > 11.2 µM

Can you look up IC50 on Tek (Homo sapiens, UniProt Q02763) for Nc1ncnc(Nc2ccc3c(c2)OCO3)n1 [Compound 1025] ? > 19.5 µM

Form: Entry = COc1cc(Nc2ncnc(Nc3cccc(C(F)(F)F)c3)n2)cc(OC)c1OC [Compound 614] | System = Tek (Homo sapiens, UniProt Q02763) | IC50 = ____ 8.31 to 10.7 µM
